test-target: Human TRPA1 (Homo sapiens, UniProt O75762)
Construct: expressed in transfected cells; host or cells: CHO cells
Sequence (O75762 whole entry): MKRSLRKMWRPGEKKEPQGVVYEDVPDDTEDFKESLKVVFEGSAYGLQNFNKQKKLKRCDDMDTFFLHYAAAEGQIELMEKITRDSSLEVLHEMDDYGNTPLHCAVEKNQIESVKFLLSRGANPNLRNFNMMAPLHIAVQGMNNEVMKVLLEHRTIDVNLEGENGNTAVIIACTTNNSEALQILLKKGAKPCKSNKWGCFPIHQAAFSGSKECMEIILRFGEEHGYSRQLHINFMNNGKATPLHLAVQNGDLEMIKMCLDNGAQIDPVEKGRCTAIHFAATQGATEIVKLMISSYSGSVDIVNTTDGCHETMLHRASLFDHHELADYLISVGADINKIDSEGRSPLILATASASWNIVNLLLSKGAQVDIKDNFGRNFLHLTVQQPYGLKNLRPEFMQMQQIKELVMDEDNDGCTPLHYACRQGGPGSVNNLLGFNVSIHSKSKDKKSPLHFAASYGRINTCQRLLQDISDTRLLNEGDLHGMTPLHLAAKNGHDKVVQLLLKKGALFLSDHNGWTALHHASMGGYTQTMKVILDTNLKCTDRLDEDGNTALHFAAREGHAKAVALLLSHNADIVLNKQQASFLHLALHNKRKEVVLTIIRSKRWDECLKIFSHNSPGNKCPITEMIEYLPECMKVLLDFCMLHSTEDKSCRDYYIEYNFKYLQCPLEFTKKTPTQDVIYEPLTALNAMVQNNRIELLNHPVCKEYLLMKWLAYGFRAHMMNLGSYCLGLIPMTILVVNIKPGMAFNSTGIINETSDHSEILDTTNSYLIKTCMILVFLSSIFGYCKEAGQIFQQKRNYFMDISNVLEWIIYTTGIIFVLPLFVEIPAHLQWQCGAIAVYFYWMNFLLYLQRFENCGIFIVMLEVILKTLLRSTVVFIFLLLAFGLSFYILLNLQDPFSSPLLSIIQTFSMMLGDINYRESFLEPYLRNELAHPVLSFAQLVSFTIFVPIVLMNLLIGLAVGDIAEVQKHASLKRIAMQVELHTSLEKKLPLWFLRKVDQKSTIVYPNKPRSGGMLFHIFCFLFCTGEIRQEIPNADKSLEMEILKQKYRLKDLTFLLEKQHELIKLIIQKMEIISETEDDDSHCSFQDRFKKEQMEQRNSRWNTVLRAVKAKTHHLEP
test-summary: 45Calcium uptake assay: inhibition of AITC induced cellular uptake of radioactive calcium
Format: cell-based
study-conditions: 10.0 μM test compound; AITC (30 μM) induced 45Ca uptake; Human TRPA1 expressing CHO cells; read-out: Percentage inhibition at 10.0 μM
readout-type: inhibition at 10 µM (%)

Cn1nc2c(c1CC(=O)Nc1nc(-c3cccc(C(F)(F)F)c3)cs1)c(=O)n(C)c(=O)n2C : 97.5
Cn1nc2c(c1CC(=O)Nc1nc(-c3ccc(F)c(C(F)(F)F)c3)cs1)c(=O)n(C)c(=O)n2C : 98.6
Cn1nc2c(c1CC(=O)Nc1nc(-c3cccc(OC(F)(F)F)c3)cs1)c(=O)n(C)c(=O)n2C : 88.5
Cn1c(=O)c2c(cnn2CC(=O)Nc2nc(-c3ccc(C(F)(F)F)c(F)c3)cs2)n(C)c1=O : 99.4

[1] Cn1c(=O)c2c(cnn2CC(=O)Nc2nc(-c3cc(Cl)c(OCC(C)(C)C)c(Cl)c3)cs2)n(C)c1=O
[2] Cn1c(=O)c2c(ccn2CC(=O)Nc2nc(-c3cc(F)c(OCC4CCC4)c(F)c3)cs2)n(C)c1=O
Lower value of inhibition at 10 µM belongs to which: 1 or 2 ? Reply briefly: the label of your chosen item.
2
(2: 38.7%, 1: 100%)

---

test-target: Human TRPA1 (Homo sapiens)
Construct: expressed in transfected cells; host or cells: CHO cells
test-summary: 45Calcium uptake assay: inhibition of AITC induced cellular uptake of radioactive calcium
Assay type: cell-based
study-conditions: 10.0 μM test compound; AITC (30 μM) induced 45Ca uptake; Human TRPA1 expressing CHO cells; read-out: Percentage inhibition at 10.0 μM
readout-type: inhibition at 10 µM (%)

Cn1c(=O)c2c(cnn2CC(=O)Nc2nc(-c3cc(F)c(OCC(C)(C)C)c(Cl)c3)cs2)n(C)c1=O [Example 80] : 100
Cn1c(=O)c2c(CC(=O)Nc3nc(-c4ccc(C(F)(F)F)c(F)c4)cs3)cn(C)c2n(C)c1=O [Example 41] : 86.5
Cn1c(=O)c2c(ccn2CC(=O)Nc2nc(-c3cc(F)c(OCCC(F)(F)F)c(F)c3)cs2)n(C)c1=O [Example 12] : 96
CN(C)Cc1cn(CC(=O)Nc2nc(-c3ccc(C(F)(F)F)c(F)c3)cs2)c2c(=O)n(C)c(=O)n(C)c12 [Example 38] : 97.8

---

test-target: Human TRPA1 (Homo sapiens)
test-summary: 45Calcium uptake assay: inhibition of AITC induced cellular uptake of radioactive calcium
study-conditions: AITC (30 μM) induced 45Ca uptake; Human TRPA1 expressing CHO cells; read-out: Human IC50 value (range)
readout-type: IC50

Example compounds with recorded IC50:
Cn1c(=O)c2c(ccn2CC(=O)Nc2nc(-c3cc(Cl)c(OCCC(F)(F)F)c(Cl)c3)cs2)n(C)c1=O : < 50 nM
CC(C)COc1c(F)cc(-c2csc(NC(=O)Cn3ncc4c3c(=O)n(C)c(=O)n4C)n2)cc1F : < 50 nM

Turning now to a further compound:
Kindly note the recorded IC50 for Cn1nc2c(c1CC(=O)Nc1nc(-c3cc(F)cc(C(F)(F)F)c3)cs1)c(=O)n(C)c(=O)n2C , which is < 50 nM
